Where do the numbers come from? From PubChem BioAssay (NCI).

test system: SF-268 CNS; assay: NCI tumour cell line growth inhibition, 48 h
Provide the reported TGI of each item.
One number for each entry, in µM.

Worked examples, 4 molecules total:
O=C1c2ccccc2C(=O)c2c(NCCCNCCO)ccc(NCCCNCCO)c21 :: 17.9
CCN(CC)CCN1C(=O)c2c(c(C)c3c(oc4cc(O)ccc43)c2C)C1=O :: 3.78
COC(=O)C[CH](C(=O)OC)[Ge]([CH3])([CH3])[S]c1ccccc1 (stereo unspecified) :: 64.1
S=c1nc(-c2ccccc2)oc(=NC2CCCCC2)n1C1CCCCC1 :: 17.6

Turning to the following molecule.
input: Tell me its TGI given N#Cc1c(Nc2ccc(F)cc2)[n+]([O-])c2ccc(Cl)cc2[n+]1[O-] as the entry.
output: 14.2
